Source: patent EP4299736A2

system: hydrolases SEQ ID NO: 1-41; experiment: Analysis of substrate spectrum of hydrolases (TLC, HPLC-MS, GC-MS); format: biochemical; conditions: enzyme SEQ ID No:25; also: key: '+'- active; ' –' inactive towards derivative
outcomeMeasure: Hydrolysis of S^4-alkyl uridine derivatives

compound: CCSc1nc(=O)n([C@@H]2O[C@H](CO)[C@@H](O)[C@H]2O)cc1F [5-F-4-S-ethyl-U]
tgt: hydrolases SEQ ID NO: 1-41
assayResult: +

compound: CCSc1ccn([C@@H]2O[C@H](CO)[C@@H](O)[C@H]2O)c(=O)n1 [4-S-ethyl-U]
tgt: hydrolases SEQ ID NO: 1-41
assayResult: +

compound: CSc1nc(=O)n([C@@H]2O[C@H](CO)[C@@H](O)[C@H]2O)cc1F [5-F-4-S-methyl-U]
tgt: hydrolases SEQ ID NO: 1-41
assayResult: +

compound: O=c1nc(SCc2ccccc2)ccn1[C@@H]1O[C@H](CO)[C@@H](O)[C@H]1O [4-S-benzyl-U]
tgt: hydrolases SEQ ID NO: 1-41
assayResult: +

compound: O=c1nc(SCc2ccccc2)c(F)cn1[C@@H]1O[C@H](CO)[C@@H](O)[C@H]1O [5-F-4-S-benzyl-U]
tgt: hydrolases SEQ ID NO: 1-41
assayResult: +
